Form: system (Stromelysin (Homo sapiens, UniProt P08254)), quantity (Ki), values below.
Give just the numeric value; nM need not be written.

These solved cases illustrate the format of a correct answer.
CCCCN1CC(=O)N(CC(CS(=O)(=O)c2ccc(OC)cc2)C(=O)NO)C1=O (stereo not shown)    9
COc1ccc(S(=O)(=O)CC(CN2C(=O)CN(C)C2=O)C(=O)NO)cc1 (stereo not shown)    17
COc1ccc(S(=O)(=O)CC(Cc2ccccc2)C(=O)NO)cc1 (stereo not shown)    49
CCCCCCCCS(=O)(=O)CC(CS(=O)(=O)c1ccc(OC)cc1)C(=O)NO (racemic)    5.4
CC(CS(=O)(=O)c1ccccc1)C(=O)NO (stereo not shown)    3600
COc1ccc(S(=O)(=O)CCCC(CS(=O)(=O)c2ccc(OC)cc2)C(=O)NO)cc1 (stereo not shown)    1

Could you now look at the following compound, please?
Lookup: Entry `O=C(NO)C(CS(=O)(=O)c1ccc(Br)cc1)CS(=O)(=O)c1ccc(Br)cc1` , system Stromelysin (Homo sapiens, UniProt P08254): what Ki was measured?
Found: 92

----------
Listed here are compounds together with their documented Ki.
# TARGET_ENTITY: Gelatinase
# EXPERIMENTAL_DETAILS: in vitro particle concentration fluorescence assay, inhibition of gelatinase
# TEST_CONTEXT: pH 7.5, room temperature, read-out: Gelatinase Ki (MMP Inhibition Constants)
Give just the numeric value; nM need not be written.

CCCCCCCCS(=O)(=O)CC(CS(=O)(=O)c1ccc(OC)cc1)C(=O)NO (racemic)    0.82
CCCCS(=O)(=O)CC(CS(=O)(=O)CCCC)C(=O)NO    350
CCCCCCCCS(=O)(=O)CC(CS(=O)(=O)CCCCCCCC)C(=O)NO    190

Could you now look at the following compound, please?
Lookup: I have this compound here, COc1ccc(S(=O)(=O)CCCC(CS(=O)(=O)c2ccc(OC)cc2)C(=O)NO)cc1 (stereo not shown) , and I need its recorded Ki.
Found: 1

----------
# TARGET_ENTITY: Gelatinase
# EXPERIMENTAL_DETAILS: in vitro particle concentration fluorescence assay, inhibition of gelatinase
# Format: biochemical
# TEST_CONTEXT: pH 7.5, room temperature, read-out: Gelatinase Ki (MMP Inhibition Constants)
Listed here are molecules together with their documented pKi.
# pKi: negative log10 of molar concentration; output just the value

These solved cases illustrate the format of a correct answer.
O=C(NO)C(CS(=O)(=O)c1ccc(Br)cc1)CS(=O)(=O)c1ccc(Br)cc1 [Example 6]    8.60
O=C(NO)C(Cc1ccccc1)CS(=O)(=O)c1ccccc1 (centres unmarked) [Example 2]    7.06
Cc1ccc(S(=O)(=O)CC(CS(=O)(=O)c2ccc(C)cc2)C(=O)NO)cc1 [Example 9]    8.42

Lookup: I have this molecule here, O=C(NO)C(CS(=O)(=O)c1ccccc1)CS(=O)(=O)c1ccccc1 [Example 10] , and I need its recorded pKi.
Found: 8.10

Lookup: I have this molecule here, CCCCN1CC(=O)N(CC(CS(=O)(=O)c2ccc(OC)cc2)C(=O)NO)C1=O (centres unmarked) [Example 15] , and I need its recorded pKi.
Found: 9.47

Lookup: I have this molecule here, COc1ccc(S(=O)(=O)CC(CS(=O)(=O)c2ccc(OC)cc2)C(=O)NO)cc1 [Example 4] , and I need its recorded pKi.
Found: 9.72

Lookup: I have this molecule here, COc1ccc(S(=O)(=O)CC(Cc2ccccc2)C(=O)NO)cc1 (centres unmarked) [Example 1] , and I need its recorded pKi.
Found: 8.04

Lookup: I have this molecule here, O=C(NO)C(CS(=O)(=O)c1ccc(Cl)cc1)CS(=O)(=O)c1ccc(Cl)cc1 [Example 5] , and I need its recorded pKi.
Found: 8.72

Lookup: I have this molecule here, CC(CS(=O)(=O)c1ccccc1)C(=O)NO (centres unmarked) [Example 3] , and I need its recorded pKi.
Found: 7.09

Lookup: I have this molecule here, COc1ccc(S(=O)(=O)CC(CN2C(=O)CN(C)C2=O)C(=O)NO)cc1 (centres unmarked) [Example 13] , and I need its recorded pKi.
Found: 8.89

Lookup: I have this molecule here, CCCCOc1ccc(S(=O)(=O)CC(CN2C(=O)CN(CCCC)C2=O)C(=O)NO)cc1 (centres unmarked) [Example 14] , and I need its recorded pKi.
Found: 10.04
